Reference for the values: patent US9346809B2

target: JAK2 (catalytic domain, His-tag) (Homo sapiens, UniProt O60674); construct: All four purified enzymes contain only the catalytic domain; His (N); purchased Carna Biosciences, Inc; host or cells: baculovirus expression system; assay: JAK kinase assay (HTRF, phosphorylation of TK substrate-biotin), JAK2; type: biochemical; conditions: ATP at Km (4 μM); read-out: JAK2 kinase inhibitory activity (EC50 indicator)
Sequence (O60674 849-1124 limits assumed): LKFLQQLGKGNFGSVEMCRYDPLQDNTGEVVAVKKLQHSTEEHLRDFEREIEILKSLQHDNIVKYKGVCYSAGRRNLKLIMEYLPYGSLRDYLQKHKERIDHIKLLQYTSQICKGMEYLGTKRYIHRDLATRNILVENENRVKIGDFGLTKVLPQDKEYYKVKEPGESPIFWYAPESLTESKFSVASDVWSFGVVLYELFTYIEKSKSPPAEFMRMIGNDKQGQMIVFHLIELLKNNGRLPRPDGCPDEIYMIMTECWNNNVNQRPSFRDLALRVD
ASSAY ENDPOINT: EC50

INSERT INTO assay_data (compound, assay_endpoint, value) VALUES
  ('N#CCN1CCCC(C(=O)N2CCN(c3ncnc4[nH]ccc34)CC23CC3)C1 (stereo not drawn)', 'EC50', '< 100 nM'),
  ('NS(=O)(=O)c1ccc2[nH]c(C(=O)N3CCN(c4ncnc5[nH]ccc45)CC34CC4)cc2c1', 'EC50', '< 100 nM'),
  ('NS(=O)(=O)CCC(=O)N1CCN(c2ncnc3[nH]ccc23)CC12CC2', 'EC50', '< 100 nM'),
  ('O=C(CC(F)(F)F)N1CCN(c2ncnc3[nH]ccc23)CC12CC2', 'EC50', '< 100 nM'),
  ('NS(=O)(=O)c1cc(OCC(=O)N2C3CCC2CN(c2ncnc4[nH]ccc24)C3)ccc1Cl', 'EC50', '< 100 nM'),
  ('O=C1CCC(C(=O)N2CCN(c3ncnc4[nH]ccc34)CC23CC3)CC1', 'EC50', '< 100 nM'),
  ('O=C(O)C1(C(=O)N2CCN(c3ncnc4[nH]ccc34)CC23CC3)CC1', 'EC50', '100 to 500 nM'),
  ('CC#CCOC(=O)N1CCN(c2ncnc3[nH]ccc23)CC12CC2', 'EC50', '< 100 nM'),
  ('Cn1c(C(=O)N2CCN(c3ncnc4[nH]ccc34)CC23CC3)ccc1S(N)(=O)=O', 'EC50', '< 100 nM'),
  ('O=C(c1cccc2cccnc12)N1CCN(c2ncnc3[nH]ccc23)CC12CC2', 'EC50', '< 100 nM'),
  ('CC(=O)NCC(=O)N1CCN(c2ncnc3[nH]ccc23)CC12CC2', 'EC50', '100 to 500 nM'),
  ('N#CCCC(=O)N1CCN(c2ccnc3[nH]ccc23)CC12CC2', 'EC50', '100 to 500 nM'),
  ('O=C(Cc1ccccc1)N1[C@@H]2CC[C@H]1CN(c1ncnc3[nH]ccc13)C2', 'EC50', '100 to 500 nM'),
  ('O=C(c1ccc2sccc2c1)N1CCN(c2ncnc3[nH]ccc23)CC12CC2', 'EC50', '< 100 nM'),
  ('O=C(c1cc2c(s1)CCC2)N1C2CCC1CN(c1ncnc3[nH]ccc13)C2', 'EC50', '< 100 nM');

---

biological target: JAK2 (catalytic domain, His-tag) (Homo sapiens, UniProt O60674); construct: All four purified enzymes contain only the catalytic domain; His (N); purchased Carna Biosciences, Inc; host or cells: baculovirus expression system; assay: JAK kinase assay (HTRF, phosphorylation of TK substrate-biotin), JAK2; assay type: biochemical; conditions: HTRF assay, ATP at Km (4 μM); read-out: JAK2 kinase inhibitory activity (EC50 indicator)
pEC50: −log10 of the molar value.
ASSAY ENDPOINT: pEC50

INSERT INTO assay_data (molecule, assay_endpoint, value) VALUES
  ('Cc1c[nH]c2ncnc(N3CCN(C(=O)Cc4ccc(C#N)cc4)C4(CC4)C3)c12 [Example 334]', 'pEC50', '> 7.00'),
  ('N#CCc1cccc(CC(=O)N2CCN(c3nc(N)nc4[nH]ccc34)CC23CC3)c1 [Example 306]', 'pEC50', '6.30 to 7.00'),
  ('Cc1cc(C(=O)N2CCN(c3ncnc4[nH]ccc34)CC23CC3)ccc1S(C)(=O)=O [Example 403]', 'pEC50', '> 7.00'),
  ('N#Cc1cccc(C(=O)N2CCN(c3ncnc4[nH]cc(Cl)c34)CC23CC3)c1 [Example 316]', 'pEC50', '6.30 to 7.00'),
  ('Cc1ccc2sc(C(=O)N3[C@@H]4CC[C@H]3CN(c3ncnc5[nH]ccc35)C4)cc2c1 [Example 247]', 'pEC50', '> 7.00'),
  ('NS(=O)(=O)c1ccc(-c2ccc(C(=O)N3CCN(c4ncnc5[nH]ccc45)CC34CC4)o2)cc1 [Example 400]', 'pEC50', '> 7.00');

---

molecular target: JAK2 (catalytic domain, His-tag) (Homo sapiens, UniProt O60674); construct: All four purified enzymes contain only the catalytic domain; His (N); purchased Carna Biosciences, Inc; host or cells: baculovirus expression system; test: JAK kinase assay (HTRF, phosphorylation of TK substrate-biotin), JAK2; type: biochemical; conditions: HTRF assay, ATP at Km (4 μM); read-out: JAK2 kinase inhibitory activity (EC50 indicator)
ASSAY ENDPOINT: EC50

INSERT INTO measurements (smi, tested_on, assay_endpoint, value) VALUES
  ('N#CCc1ccccc1C(=O)N1CCN(c2ncnc3[nH]ccc23)CC12CC2', 'JAK2 (catalytic domain, His-tag) (Homo sapiens, UniProt O60674)', 'EC50', '< 100 nM'),
  ('O=C([C@@H]1CCCc2ccccc21)N1CCN(c2ncnc3[nH]ccc23)CC12CC2', 'JAK2 (catalytic domain, His-tag) (Homo sapiens, UniProt O60674)', 'EC50', '100 to 500 nM'),
  ('Cc1c[nH]c2ncnc(N3CCN(C(=O)C4(C#N)CC4)C4(CC4)C3)c12', 'JAK2 (catalytic domain, His-tag) (Homo sapiens, UniProt O60674)', 'EC50', '> 500 nM');

---

target: JAK3 (catalytic domain, His-tag) (Homo sapiens); construct: All four purified enzymes contain only the catalytic domain; His (N); purchased Carna Biosciences, Inc; host or cells: baculovirus expression system; test: JAK kinase assay (HTRF, phosphorylation of TK substrate-biotin), JAK3; assay type: biochemical; settings: HTRF assay, ATP at Km (2 μM); read-out: JAK3 kinase inhibitory activity (EC50 indicator)
Sequence (P52333 822-1111 limits assumed): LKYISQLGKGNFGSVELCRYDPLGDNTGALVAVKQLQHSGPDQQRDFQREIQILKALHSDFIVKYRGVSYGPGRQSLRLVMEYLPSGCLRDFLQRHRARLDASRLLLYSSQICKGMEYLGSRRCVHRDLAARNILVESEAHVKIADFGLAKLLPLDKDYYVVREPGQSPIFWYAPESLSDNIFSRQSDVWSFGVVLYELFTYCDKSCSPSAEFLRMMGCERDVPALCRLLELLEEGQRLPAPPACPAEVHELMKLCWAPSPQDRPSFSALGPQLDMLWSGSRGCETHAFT
Each item that follows carries a reported EC50.
ASSAY ENDPOINT: EC50

INSERT INTO assay_data (compound, tested_on, value) VALUES
  ('CNS(=O)(=O)c1cc(C(=O)N2CCN(c3ncnc4[nH]ccc34)CC23CC3)sc1C [Example 375]', 'JAK3 (catalytic domain, His-tag) (Homo sapiens)', '< 100 nM'),
  ('N#Cc1ccc(CC(=O)N2CCN(c3ncnc4[nH]cc(Cl)c34)CC23CC3)cc1 [Example 324]', 'JAK3 (catalytic domain, His-tag) (Homo sapiens)', '< 100 nM'),
  ('Cc1c(C(=O)N2CCN(c3ncnc4[nH]ccc34)CC23CC3)sc2ccccc12 [Example 296]', 'JAK3 (catalytic domain, His-tag) (Homo sapiens)', '100 to 500 nM'),
  ('CCCc1cc(C(=O)N2CCN(c3ncnc4[nH]ccc34)CC23CC3)cs1 [Example 207]', 'JAK3 (catalytic domain, His-tag) (Homo sapiens)', '100 to 500 nM'),
  ('Cc1sc(C(=O)N2CCN(c3ncnc4[nH]ccc34)CC23CC3)cc1Br [Example 208]', 'JAK3 (catalytic domain, His-tag) (Homo sapiens)', '< 100 nM'),
  ('NS(=O)(=O)c1csc(C(=O)N2CCN(c3ncnc4[nH]ccc34)CC23CC3)c1 [Example 372]', 'JAK3 (catalytic domain, His-tag) (Homo sapiens)', '< 100 nM'),
  ('COC(=O)c1cc2c(N3CCN(C(=O)C4(C#N)CC4)C4(CC4)C3)ncnc2[nH]1 [Example 336]', 'JAK3 (catalytic domain, His-tag) (Homo sapiens)', '> 500 nM'),
  ('N#CCCC(=O)N1CCN(c2ncnc3[nH]cc(Cl)c23)CC12CC2 [Example 325]', 'JAK3 (catalytic domain, His-tag) (Homo sapiens)', '100 to 500 nM'),
  ('CS(=O)(=O)Nc1ccc(C(=O)N2CCN(c3ncnc4[nH]ccc34)CC23CC3)cc1 [Example 430]', 'JAK3 (catalytic domain, His-tag) (Homo sapiens)', '< 100 nM'),
  ('Cc1ccc(C(=O)N2CCN(c3ccnc4[nH]ccc34)CC23CC3)s1 [Example 231]', 'JAK3 (catalytic domain, His-tag) (Homo sapiens)', '100 to 500 nM'),
  ('N#CCOc1cccc(C(=O)N2[C@@H]3CC[C@@H]2CN(c2ncnc4[nH]ccc24)C3)c1 [Example 343]', 'JAK3 (catalytic domain, His-tag) (Homo sapiens)', '100 to 500 nM'),
  ('N#CCCCC(=O)N1CCN(c2ncnc3[nH]cc(Cl)c23)CC12CC2 [Example 322]', 'JAK3 (catalytic domain, His-tag) (Homo sapiens)', '100 to 500 nM');

---

EC50: recorded values
biological target: JAK2 (catalytic domain, His-tag) (Homo sapiens); construct: All four purified enzymes contain only the catalytic domain; His (N); purchased Carna Biosciences, Inc; host or cells: baculovirus expression system; assay: JAK kinase assay (HTRF, phosphorylation of TK substrate-biotin), JAK2; type: biochemical; settings: HTRF assay, ATP at Km (4 μM); read-out: JAK2 kinase inhibitory activity (EC50 indicator)
ASSAY ENDPOINT: EC50

INSERT INTO measurements (smi, value) VALUES
  ('CNS(=O)(=O)c1cc(C(=O)N2CCN(c3ncnc4[nH]ccc34)CC23CC3)sc1C', '< 100 nM'),
  ('O=C(c1ccc2cc[nH]c2c1)N1[C@@H]2CC[C@@H]1CN(c1ncnc3[nH]ccc13)C2', '< 100 nM'),
  ('N#CCCCC(=O)N1CCN(c2ncnc3[nH]ccc23)CC12CC2', '< 100 nM'),
  ('COc1cnc2[nH]ccc2c1N1CCN(C(=O)c2ccccc2)C2(CC2)C1', '100 to 500 nM'),
  ('N#Cc1ccc(C(=O)C(=O)N2CCN(c3ncnc4[nH]ccc34)CC23CC3)cc1', '< 100 nM'),
  ('NS(=O)(=O)c1csc(C(=O)N2CCN(c3ncnc4[nH]ccc34)CC23CC3)c1', '< 100 nM');
